test system: VEGF; assay: ELISA VEGF assay (DFO-treated cells); assay type: cell-based, Human; conditions: read-out: VEGF IC50; VEGF released into media by DFO-treated cells, normalized to cell count; listed as G in H2O
pIC50: −log10 of the molar value.
Measure: pIC50

[[record]]
compound = "C[C@H](Cc1ccc(OCCN(C)C)c(OCCN(C)C)c1)[C@@H](C)Cc1ccc(OCCN(C)C)c(OCCN(C)C)c1 [Compound G]"
system = "VEGF"
test_result = 4.60


###

Test system: A549 (lung carcinoma)
Assay: MTS cell viability assay, A549
Type: cell-based
Conditions: Homo sapiens, A549, read-out: A549 IC50
Method: Studies performed regarding cytotoxicity included the well-known MTS, Trypan Blue and MTT protocols. The MTS studies were done using the CellTiter 96®AQueous One Solution Cell Proliferation Assay (Promega Corporation, Madison, Wis. USA). […] The measurement of the absorbance of the formazan is read at 490 nm. The ready to use reagent is added directly to the cells in media in 96-well plates, incubated 1-4 hours and the results are recorded by the plate reader. […]
pIC50: −log10 of the molar value.
This section presents compounds with their documented pIC50 values.
Measure: pIC50

[[record]]
compound = "C[C@H](Cc1ccc(OCCCCN2CCN(C)CC2)c(OCCCCN2CCN(C)CC2)c1)[C@@H](C)Cc1ccc(OCCCCN2CCN(C)CC2)c(OCCCCN2CCN(C)CC2)c1 [Compound O]"
measure = "pIC50"
test_result = "5.05 to 5.10"

[[record]]
compound = "C[C@H](Cc1ccc(OCCO)c(OCCO)c1)[C@@H](C)Cc1ccc(OCCO)c(OCCO)c1 [Compound I]"
measure = "pIC50"
test_result = "4.15 to 4.19"

[[record]]
compound = "C[C@H](Cc1ccc(OCCN(C)C)c(OCCN(C)C)c1)[C@@H](C)Cc1ccc(OCCN(C)C)c(OCCN(C)C)c1 [Compound G]"
measure = "pIC50"
test_result = "4.70 to 4.82"

[[record]]
compound = "Cc1nc(COc2ccc(C[C@@H](C)[C@@H](C)Cc3ccc(OCc4csc(C)n4)c(OCc4csc(C)n4)c3)cc2OCc2csc(C)n2)cs1 [Compound F]"
measure = "pIC50"
test_result = "< 4.00"

